test system: 324938-238-R-J1-PDC complex spheroid growth, % test/control; assay: Anticancer human tumor 324938-238-R-J1-PDC patient-derived bladder carcinoma cell line growth inhibition [AhR]; conditions: second compound 0.1 µM; first compound 3.16 µM; stronger effect = lower value
A collection of compounds and their measured viability, T/C
Note: unit % is implicit; provide only the numeric part.

Recorded viability, T/C, per entry:
CC1COCCN1c1cc(C2(S(C)(=N)=O)CC2)nc(-c2ccnc3[nH]ccc23)n1 (stereo unspecified) + CC(CO)NC(=O)c1cc(-c2ccc(Cl)cc2)nn(-c2cnn(C)c2)c1=O	41.4
CC1COCCN1c1cc(C2(S(C)(=N)=O)CC2)nc(-c2ccnc3[nH]ccc23)n1 (stereo unspecified) + Cc1cncc(-c2nc(NCCc3c[nH]c4ccccc34)c3ncn(C(C)C)c3n2)c1	93.2
COc1cc(C2c3cc4c(cc3C(OC3OC5COC(C)OC5C(O)C3O)C3COC(=O)C23)OCO4)cc(OC)c1O (stereo unspecified) + CC(CO)NC(=O)c1cc(-c2ccc(Cl)cc2)nn(-c2cnn(C)c2)c1=O	26.8

Quick one: viability, T/C of CC1(C)CCC(CN2CCN(c3ccc(C(=O)NS(=O)(=O)c4ccc(NCC5CCOCC5)c([N+](=O)[O-])c4)c(Oc4cnc5[nH]ccc5c4)c3)CC2)=C(c2ccc(Cl)cc2)C1 + Cc1ccccc1N=Nc1ccc(NC(=O)c2ccnn2C)c(C)c1 ?
80.7

Quick one: viability, T/C of Nc1ccn(C2OC(CO)C(O)C2(F)F)c(=O)n1 (stereo unspecified) + Cc1ccccc1N=Nc1ccc(NC(=O)c2ccnn2C)c(C)c1 ?
10.4

Quick one: viability, T/C of COc1cccc2c1C(=O)c1c(O)c3c(c(O)c1C2=O)CC(O)(C(=O)CO)CC3OC1CC(N)C(O)C(C)O1 (stereo unspecified) + CC(CO)NC(=O)c1cc(-c2ccc(Cl)cc2)nn(-c2cnn(C)c2)c1=O ?
0.09

----------
Tested on: 324938-238-R-J1-PDC complex spheroid growth, % test/control
Experiment: Anticancer human tumor 324938-238-R-J1-PDC cell line growth inhibition [AhR];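 note: spheroids exposed to agents for seven days before viability read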
Conditions: second compound 3.16 µM; first compound 0.0316 µM; stronger effect = lower value
Source text: Multicellular complex tumor spheroid response to aryl hydrocarbon receptor antagonists in combination with a variety of drugs and investigational agents in selected tumor cell lines […] Compounds. […] If the clinical Cmax for an agent had not been determined, the highest concentration tested was 10 microM (Table 1). […]
Lab note: anything with viability, T/C below 80% is marked Yes; values at 80% or higher are marked No.

See these solved cases before continuing.
Nc1ccn(C2OC(CO)C(O)C2(F)F)c(=O)n1 (stereo unspecified) + Cc1cncc(-c2nc(NCCc3c[nH]c4ccccc34)c3ncn(C(C)C)c3n2)c1	No
Nc1ccccc1NC(=O)c1ccc(CNC(=O)OCc2cccnc2)cc1 + Cc1ccccc1N=Nc1ccc(NC(=O)c2ccnn2C)c(C)c1	No
Nc1ccn(C2OC(CO)C(O)C2(F)F)c(=O)n1 (stereo unspecified) + CC(CO)NC(=O)c1cc(-c2ccc(Cl)cc2)nn(-c2cnn(C)c2)c1=O	Yes
CC[C@@]1(O)C(=O)OCc2c1cc1n(c2=O)Cc2cc3c(CN(C)C)c(O)ccc3nc2-1 + Cc1ccccc1N=Nc1ccc(NC(=O)c2ccnn2C)c(C)c1	Yes
Nc1ncn(C2CC(O)C(CO)O2)c(=O)n1 (stereo unspecified) + CC(CO)NC(=O)c1cc(-c2ccc(Cl)cc2)nn(-c2cnn(C)c2)c1=O	Yes

For CC1(C)CCC(CN2CCN(c3ccc(C(=O)NS(=O)(=O)c4ccc(NCC5CCOCC5)c([N+](=O)[O-])c4)c(Oc4cnc5[nH]ccc5c4)c3)CC2)=C(c2ccc(Cl)cc2)C1 + Cc1cncc(-c2nc(NCCc3c[nH]c4ccccc34)c3ncn(C(C)C)c3n2)c1 , is the recorded viability, T/C below the cut-off of 80%?
No

----------
tested on: 324938-238-R-J1-PDC complex spheroid growth, % test/control; assay: Anticancer human tumor 324938-238-R-J1-PDC cell line growth inhibition [AhR]; details: curve of first compound; second compound 10 µM;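 note: spheroids exposed to agents for seven days before viability read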
pIC50: −log10 of the molar value.
attribute measured: pIC50

Recorded pIC50, per entry:
COc1cccc2c1C(=O)c1c(O)c3c(c(O)c1C2=O)CC(O)(C(=O)CO)CC3OC1CC(N)C(O)C(C)O1 (stereo unspecified) + CC(CO)NC(=O)c1cc(-c2ccc(Cl)cc2)nn(-c2cnn(C)c2)c1=O	> 7.50
CC(C)c1c(-c2ccccc2)nc2c(C#N)c[nH]n2c1=O + CC(CO)NC(=O)c1cc(-c2ccc(Cl)cc2)nn(-c2cnn(C)c2)c1=O	< 5.00
CC(C)CC(NC(=O)C(Cc1ccccc1)NC(=O)c1cnccn1)B(O)O (stereo unspecified) + CC(CO)NC(=O)c1cc(-c2ccc(Cl)cc2)nn(-c2cnn(C)c2)c1=O	8.86

Quick one: pIC50 of CCN(c1cc(-c2ccc(CN3CCOCC3)cc2)cc(C(=O)NCc2c(C)cc(C)[nH]c2=O)c1C)C1CCOCC1 + Cc1ccccc1N=Nc1ccc(NC(=O)c2ccnn2C)c(C)c1 ?
< 5.52

Quick one: pIC50 of CC(C)c1c(-c2ccccc2)nc2c(C#N)c[nH]n2c1=O + Cc1ccccc1N=Nc1ccc(NC(=O)c2ccnn2C)c(C)c1 ?
< 5.00

Quick one: pIC50 of CCc1c2c(nc3ccc(O)cc13)-c1cc3c(c(=O)n1C2)COC(=O)[C@]3(O)CC + Cc1cncc(-c2nc(NCCc3c[nH]c4ccccc34)c3ncn(C(C)C)c3n2)c1 ?
> 9.02

----------
tested on: 324938-238-R-J1-PDC complex spheroid growth, % test/control; test: Anticancer human tumor 324938-238-R-J1-PDC cell line growth inhibition [AhR]; details: curve of first compound; second compound 0.316 µM;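 note: spheroids exposed to agents for seven days before viability read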
attribute measured: pIC50
Scale note: pIC50 = -log10(concentration in M).

Recorded pIC50, per entry:
NS(=O)(=O)OCC1CC(n2ccc3c(NC4CCc5ccccc54)ncnc32)CC1O (stereo unspecified) + CC(CO)NC(=O)c1cc(-c2ccc(Cl)cc2)nn(-c2cnn(C)c2)c1=O	6.25
O=C(C=Cn1cnc(-c2cc(C(F)(F)F)cc(C(F)(F)F)c2)n1)NNc1cnccn1 + CC(CO)NC(=O)c1cc(-c2ccc(Cl)cc2)nn(-c2cnn(C)c2)c1=O	6.86
Nc1ncn(C2CC(O)C(CO)S2)c(=O)n1 (stereo unspecified) + CC(CO)NC(=O)c1cc(-c2ccc(Cl)cc2)nn(-c2cnn(C)c2)c1=O	6.60
COc1cc(Nc2ncc3c(n2)-c2ccc(Cl)cc2C(c2c(F)cccc2OC)=NC3)ccc1C(=O)O + CC(CO)NC(=O)c1cc(-c2ccc(Cl)cc2)nn(-c2cnn(C)c2)c1=O	7.10

Quick one: pIC50 of COc1cc(C2c3cc4c(cc3C(OC3OC5COC(C)OC5C(O)C3O)C3COC(=O)C23)OCO4)cc(OC)c1O (stereo unspecified) + CC(CO)NC(=O)c1cc(-c2ccc(Cl)cc2)nn(-c2cnn(C)c2)c1=O ?
6.37

----------
tested on: 324938-238-R-J1-PDC complex spheroid growth, % test/control; experiment: Anticancer human tumor 324938-238-R-J1-PDC cell line growth inhibition [AhR]; details: second compound 10 µM; first compound 10 µM; stronger effect = lower value;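 note: spheroids exposed to agents for seven days before viability read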
Lab note: anything with viability, T/C below 20% is marked fulfilled; values at 20% or higher are marked not fulfilled.

See these solved cases before continuing.
COc1cc(C2c3cc4c(cc3C(OC3OC5COC(C)OC5C(O)C3O)C3COC(=O)C23)OCO4)cc(OC)c1O (stereo unspecified) + CC(CO)NC(=O)c1cc(-c2ccc(Cl)cc2)nn(-c2cnn(C)c2)c1=O	not fulfilled
Nc1ccn(C2OC(CO)C(O)C2(F)F)c(=O)n1 (stereo unspecified) + CC(CO)NC(=O)c1cc(-c2ccc(Cl)cc2)nn(-c2cnn(C)c2)c1=O	fulfilled
COc1cccc2c1C(=O)c1c(O)c3c(c(O)c1C2=O)CC(O)(C(=O)CO)CC3OC1CC(N)C(O)C(C)O1 (stereo unspecified) + CC(CO)NC(=O)c1cc(-c2ccc(Cl)cc2)nn(-c2cnn(C)c2)c1=O	fulfilled

Could you now consider this next compound?
For COc1ccc([C@@H](O)c2cc(-c3ncnc4cc(N5CCOCC5)ccc34)c(F)cc2Cl)nn1 + Cc1ccccc1N=Nc1ccc(NC(=O)c2ccnn2C)c(C)c1 , is the recorded viability, T/C below the cut-off of 20%?
not fulfilled

----------
A collection of compounds and their measured pIC50
test system: 324938-238-R-J1-PDC complex spheroid growth, % test/control; assay: Anticancer human tumor 324938-238-R-J1-PDC cell line growth inhibition [AhR]; conditions: curve of first compound; second compound 0.316 µM;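 note: spheroids exposed to agents for seven days before viability read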
pIC50: −log10 of the molar value.

Recorded pIC50, per entry:
CC1(C)CCC(CN2CCN(c3ccc(C(=O)NS(=O)(=O)c4ccc(NCC5CCOCC5)c([N+](=O)[O-])c4)c(Oc4cnc5[nH]ccc5c4)c3)CC2)=C(c2ccc(Cl)cc2)C1 + Cc1ccccc1N=Nc1ccc(NC(=O)c2ccnn2C)c(C)c1	< 5.00
Nc1ncn(C2CC(O)C(CO)O2)c(=O)n1 (stereo not drawn) + CC(CO)NC(=O)c1cc(-c2ccc(Cl)cc2)nn(-c2cnn(C)c2)c1=O	< 6.00

Field: next compound
Quick one: pIC50 of COc1cc(C2c3cc4c(cc3C(OC3OC5COC(C)OC5C(O)C3O)C3COC(=O)C23)OCO4)cc(OC)c1O (stereo not drawn) + Cc1ccccc1N=Nc1ccc(NC(=O)c2ccnn2C)c(C)c1 ?
6.52

Data origin: PubChem BioAssay AID1918995
